Recorded inhibition at 30 µM values for a group of compounds are listed next.
Molecular target: HIV-1 protease (Human immunodeficiency virus type 1 group M subtype B)
Construct: The protease (or proteinase), consisting of only 99 amino acids, is among the smallest enzymes known
Experiment: In vitro HIV protease inhibitory assay (HIV Protease FITC Assay)
Format: biochemical
Details: HIV-1 Dose 30.000 uM; read-out: HIV-1 Protease % Inhib

| Compound | inhibition at 30 µM, % |
| --- | --- |
| O=c1oc(CCc2nnnn2C2CCCCC2)cc(O)c1C(c1ccccc1)C1CC1 (stereo not drawn) [Example 119] | 60.3 |
| CCC(Cc1ccccc1)c1cc(O)c(C(c2cccc(NC(=O)Cc3cccnc3)c2)C2CC2)c(=O)o1 (stereo not drawn) [Example 248] | 99.2 |
| CCCC1(CCc2ccccc2)CC(O)=C(C(c2ccc(COCOC)s2)C2CC2)C(=O)O1 (stereo not drawn) [Example 240] | 104 |
| O=C1OC(CCc2ccccc2)(CCc2ccccc2)CC(O)=C1C(c1ccccc1)c1ccccc1 [Example 235] | 80.1 |
| CCC(Cc1ccccc1)c1cc(O)c(C(c2cccc(NC(=O)[C@H](C)NC(=O)OC(C)(C)C)c2)C2CC2)c(=O)o1 (stereo partly drawn) [Example 221] | 101 |
| CCC(C1=C(O)CC(Cc2ccccc2)(Cc2ccccc2)OC1=O)c1ccccc1 (stereo not drawn) [Example 120] | 60.1 |
| CCC(Cc1ccccc1)c1cc(O)c(C(c2cccc(NC(=O)Nc3ccc(OC)cc3)c2)C2CC2)c(=O)o1 (stereo not drawn) [Example 214] | 86 |
| CCC(Cc1ccc(Cl)cc1)c1cc(O)c(C(c2ccccc2)C2CC2)c(=O)o1 (stereo not drawn) [Example 155] | 93.5 |
| CCC(Cc1ccccc1Cl)c1cc(O)c(C(c2ccccc2)C2CC2)c(=O)o1 (stereo not drawn) [Example 157] | 84.9 |
| CCC(Cc1ccccc1)c1cc(O)c(C(c2cccc(NS(=O)(=O)c3ccc(C(C)(C)C)cc3)c2)C2CC2)c(=O)o1 (stereo not drawn) [Example 183] | 90.8 |
| O=c1oc(CC(O)c2ccco2)cc(O)c1C(c1ccccc1)C1CC1 (stereo not drawn) [Example 117] | 101 |
| CCCC1(CCc2ccccc2)CC(O)=C(/C(=C/c2ccccc2)c2ccccc2)C(=O)O1 (stereo not drawn) [Example 173] | 58.8 |
| O=c1oc(CC(O)c2ccoc2)cc(O)c1C(c1ccccc1)C1CC1 (stereo not drawn) [Example 152] | 90.5 |
| CCC(CC1COc2ccccc2O1)c1cc(O)c(C(c2ccccc2)C2CC2)c(=O)o1 (stereo not drawn) [Example 74] | 106 |
| CCC(Cc1ccc(OC)cc1)c1cc(O)c(C(c2ccccc2)C2CC2)c(=O)o1 (stereo not drawn) [Example 163] | 98.4 |
| CCC(C1=C(O)CC2(CCC(=O)CC2)OC1=NO)c1ccccc1 (stereo not drawn) [Example 123] | 72 |
| CCC(CCc1ccsc1)c1cc(O)c(C(c2ccccc2)C2CC2)c(=O)o1 (stereo not drawn) [Example 71] | 96.4 |
| O=c1oc(CCCC(F)(F)F)cc(O)c1C(c1ccccc1)C1CC1 (stereo not drawn) [Example 118] | 102 |

###

Target: HIV-1 protease (Human immunodeficiency virus type 1 group M subtype B)
Construct: The protease (or proteinase), consisting of only 99 amino acids, is among the smallest enzymes known
Experiment: In vitro HIV protease inhibitory assay (HIV Protease FITC Assay)
Format: biochemical
Conditions: HIV-1 Dose 33.000 uM; read-out: HIV-1 Protease % Inhib
Recorded inhibition at 33 µM values for a group of compounds are listed next.

| Compound | inhibition at 33 µM |
| --- | --- |
| CCC(Cc1csc(-c2ccc(Cl)cc2)n1)c1cc(O)c(C(c2ccccc2)C2CC2)c(=O)o1 (stereo not shown) | 89.6% |
| CCC(CC1CCCCO1)c1cc(O)c(C(c2ccccc2)C2CC2)c(=O)o1 (stereo not shown) | 113% |
| CCC(CC1CCCO1)c1cc(O)c(C(c2ccccc2)C2CC2)c(=O)o1 (stereo not shown) | 119% |
| COCCOCCOCCCc1cc(O)c(C(c2ccccc2)C2CC2)c(=O)o1 (stereo not shown) | 84.8% |

###

Biological target: HIV-1 protease (Human immunodeficiency virus type 1 group M subtype B, UniProt P04585)
Construct: The protease (or proteinase), consisting of only 99 amino acids, is among the smallest enzymes known
Experiment: In vitro HIV protease inhibitory assay (HIV Protease FITC Assay)
Format: biochemical
Conditions: HIV-1 Dose 0.123 uM; read-out: HIV-1 Protease % Inhib

| Molecule | Target | inhibition at 0.123 µM |
| --- | --- | --- |
| CCC(Cc1ccccc1)c1cc(O)c(C(c2cccc(NS(=O)(=O)c3ccc(C(C)(C)C)cc3)c2)C2CC2)c(=O)o1 (stereo not shown) | HIV-1 protease (Human immunodeficiency virus type 1 group M subtype B, UniProt P04585) | < 10% |
| CCC(CC1CCCCN1S(=O)(=O)c1ccc(C)cc1)c1cc(O)c(C(c2ccccc2)C2CC2)c(=O)o1 (stereo not shown) | HIV-1 protease (Human immunodeficiency virus type 1 group M subtype B, UniProt P04585) | < 10% |
| O=c1oc(C(CC2CC2)CC2CC2)cc(O)c1C(Cc1ccccc1)Cc1ccccc1 | HIV-1 protease (Human immunodeficiency virus type 1 group M subtype B, UniProt P04585) | 39.9% |
| CCC(Cc1ccccc1)c1cc(O)c(C(c2cccc(NC(=O)Nc3ccc(OC)cc3)c2)C2CC2)c(=O)o1 (stereo not shown) | HIV-1 protease (Human immunodeficiency virus type 1 group M subtype B, UniProt P04585) | < 10% |

###

Target: HIV-1 protease (Human immunodeficiency virus type 1 group M subtype B, UniProt P04585)
Construct: The protease (or proteinase), consisting of only 99 amino acids, is among the smallest enzymes known
Experiment: In vitro HIV protease inhibitory assay (HIV Protease FITC Assay)
Type: biochemical
Conditions: HIV-1 Dose 10.000 uM; read-out: HIV-1 Protease % Inhib
Recorded inhibition at 10 µM values for a group of compounds are listed next.

| Compound | Target | inhibition at 10 µM / % |
| --- | --- | --- |
| CCC(c1ccccc1)c1c(O)cc(-c2ccccc2)oc1=O (stereo not drawn) | HIV-1 protease (Human immunodeficiency virus type 1 group M subtype B, UniProt P04585) | 45.5 |
| CCC(c1ccccc1)c1c(O)cc(C(CC2CC2)CC2CC2)oc1=O (stereo not drawn) | HIV-1 protease (Human immunodeficiency virus type 1 group M subtype B, UniProt P04585) | 83.8 |
| O=c1oc(C(Cc2ccccc2)CC2CC2)cc(O)c1C(c1ccccc1)C1CC1 (stereo not drawn) | HIV-1 protease (Human immunodeficiency virus type 1 group M subtype B, UniProt P04585) | 60.8 |
| CCCc1cc(O)c(C(c2ccccc2)C2CC2)c(=O)o1 (stereo not drawn) | HIV-1 protease (Human immunodeficiency virus type 1 group M subtype B, UniProt P04585) | 73.2 |
| O=C1OC(CCc2ccccc2)(CCc2ccccc2)CC(O)=C1C(C=Cc1ccccc1)c1ccccc1 (stereo not drawn) | HIV-1 protease (Human immunodeficiency virus type 1 group M subtype B, UniProt P04585) | 75.8 |
| O=c1oc(C(CC2CC2)CC2CCCOC2)cc(O)c1C(c1ccccc1)C1CC1 (stereo not drawn) | HIV-1 protease (Human immunodeficiency virus type 1 group M subtype B, UniProt P04585) | 105 |
| CCC(c1ccccc1)c1c(O)cc(CC(=O)Nc2ccccc2)oc1=O (stereo not drawn) | HIV-1 protease (Human immunodeficiency virus type 1 group M subtype B, UniProt P04585) | 35.6 |
| CCC(Cc1ccc(OC)cc1)c1cc(O)c(C(c2ccccc2)C2CC2)c(=O)o1 (stereo not drawn) | HIV-1 protease (Human immunodeficiency virus type 1 group M subtype B, UniProt P04585) | 101 |
| O=c1oc(CCCc2ccccc2)cc(O)c1C(c1ccccc1)C1CC1 (stereo not drawn) | HIV-1 protease (Human immunodeficiency virus type 1 group M subtype B, UniProt P04585) | 83.7 |

###

Recorded inhibition at 11 µM values for a group of compounds are listed next.
Target: HIV-1 protease (Human immunodeficiency virus type 1 group M subtype B)
Construct: The protease (or proteinase), consisting of only 99 amino acids, is among the smallest enzymes known
Assay: In vitro HIV protease inhibitory assay (HIV Protease FITC Assay)
Type: biochemical
Conditions: HIV-1 Dose 11.000 uM; read-out: HIV-1 Protease % Inhib

| Compound | Target | inhibition at 11 µM |
| --- | --- | --- |
| CCC(Cc1cccs1)c1cc(O)c(C(c2ccccc2)C2CC2)c(=O)o1 (stereo not drawn) | HIV-1 protease (Human immunodeficiency virus type 1 group M subtype B) | 108% |
| CCC(C1=C(O)CC2(CCC3(CC2)OCCO3)OC1=O)c1ccccc1 (stereo not drawn) | HIV-1 protease (Human immunodeficiency virus type 1 group M subtype B) | 63.5% |
| COCCOCCC(Cc1ccccc1)c1cc(O)c(C(c2ccccc2)C2CC2)c(=O)o1 (stereo not drawn) | HIV-1 protease (Human immunodeficiency virus type 1 group M subtype B) | 103% |
| CCC(CC1CCOCC1)c1cc(O)c(C(c2ccccc2)C2CC2)c(=O)o1 (stereo not drawn) | HIV-1 protease (Human immunodeficiency virus type 1 group M subtype B) | 108% |
| O=c1oc(CCc2ccccn2)cc(O)c1C(c1ccccc1)C1CC1 (stereo not drawn) | HIV-1 protease (Human immunodeficiency virus type 1 group M subtype B) | 80% |
| O=c1oc(CCCCN2CCOCC2)cc(O)c1C(c1ccccc1)C1CC1 (stereo not drawn) | HIV-1 protease (Human immunodeficiency virus type 1 group M subtype B) | < 10% |
| O=c1oc(CCC2OCCO2)cc(O)c1C(c1ccccc1)C1CC1 (stereo not drawn) | HIV-1 protease (Human immunodeficiency virus type 1 group M subtype B) | 73.2% |
| CCC(Cc1ccccc1)c1oc(=O)c(C(CC)c2ccccc2)c(O)c1Br (stereo not drawn) | HIV-1 protease (Human immunodeficiency virus type 1 group M subtype B) | 103% |
| CCC(Cc1ccccc1)c1cc(O)c(C(c2cccc(NC(=O)OCc3ccccc3)c2)C2CC2)c(=O)o1 (stereo not drawn) | HIV-1 protease (Human immunodeficiency virus type 1 group M subtype B) | 73.7% |

Just for reference, patent EP1203770A1 is where these values come from.
